Origin of the recorded values: paper PMC8515367

experimentalSystem: G121S-ecDHFR (Escherichia coli, UniProt P0ABQ4, G121S)
assayNotes: Ligand-binding assay, tryptophan fluorescence titration
propertyName: pKd
Recall that pKd is obtained by taking minus log10 of the concentration measured in molar.

What measured pKd goes with `NC(=O)C1=CN([C@@H]2O[C@H](COP(=O)(O)OP(=O)(O)OC[C@H]3O[C@@H](n4cnc5c(N)ncnc54)[C@H](OP(=O)(O)O)[C@@H]3O)[C@@H](O)[C@H]2O)C=CC1` ?
5.01

###

experimentalSystem: wildtype ecDHFR (Escherichia coli)
assayNotes: Ligand-binding assay, tryptophan fluorescence titration
cond: KD^NADPH, 5 μM ecDHFR, ΔF340nm analysis, fitted up to 100 μM NADPH
propertyName: Kd (nM)
Quick note: give the figure in nM, leave out the unit.

# get_value(readout= Kd, system= wildtype ecDHFR (Escherichia coli)) for `NC(=O)C1=CN([C@@H]2O[C@H](COP(=O)(O)OP(=O)(O)OC[C@H]3O[C@@H](n4cnc5c(N)ncnc54)[C@H](OP(=O)(O)O)[C@@H]3O)[C@@H](O)[C@H]2O)C=CC1`
1230
